test system: βTC6 cells; test: Insulin secretion from βTC6 cells (high range insulin Sandwich ELISA kit); format: cell-based; conditions: absence of glucose, compounds at 10^−12, 10^−9, 10^−6 M
endpoint_name: basal insulin secretion

• Cc1cc(O)nc(NC(=O)CN2C(=O)/C(=C\c3ccc(F)cc3)SC2=S)n1 = significant decrease
• CCCNc1ncc(/C=C2\SC(=S)N(CC(=O)O)C2=O)cn1 [Compound 130f] = significant increases
• CN=C1NC(=O)/C(=C\c2ccc(S(=O)(=O)[n+]3ccccc3)cc2)S1 [Compound 105a] = significant decrease
• CC(C)Nc1ncc(/C=C2\SC(=S)N(CC(=O)O)C2=O)cn1 [Compound 130d] = did not show any effect
• Cc1ccc(S(=O)(=O)NC(=O)Nc2nccc(NC(=O)CC3SC(=O)NC3=O)n2)cc1 (centres unmarked) = significantly increased

Qu. So what basal insulin secretion did CN(C)c1ncc(/C=C2\SC(=S)NC2=O)cn1 [Compound 130a] get with βTC6 cells?
Ans. did not show any effect

Qu. Lab note: need basal insulin secretion for Nc1ncc(/C=C2\SC(=S)NC2=O)cn1 [Compound 130b] on βTC6 cells, anyone have it?
Ans. significantly increased

Qu. Query for βTC6 cells: what basal insulin secretion does the record show for O=C(O)CN1C(=O)/C(=C/c2cnc(N3CCOCC3)nc2)SC1=S [Compound 130e] ?
Ans. significant increases

Qu. Find basal insulin secretion (βTC6 cells) for the entry C/N=C1/NC(=O)/C(=C\c2ccc(S(=O)(=O)Nc3ccnc(N)n3)cc2)S1 [Compound 105b]
Ans. significant decrease
